# experimental.system: human PCSK9 (Homo sapiens, UniProt Q8NBP7)
# Sequence (Q8NBP7 153-692): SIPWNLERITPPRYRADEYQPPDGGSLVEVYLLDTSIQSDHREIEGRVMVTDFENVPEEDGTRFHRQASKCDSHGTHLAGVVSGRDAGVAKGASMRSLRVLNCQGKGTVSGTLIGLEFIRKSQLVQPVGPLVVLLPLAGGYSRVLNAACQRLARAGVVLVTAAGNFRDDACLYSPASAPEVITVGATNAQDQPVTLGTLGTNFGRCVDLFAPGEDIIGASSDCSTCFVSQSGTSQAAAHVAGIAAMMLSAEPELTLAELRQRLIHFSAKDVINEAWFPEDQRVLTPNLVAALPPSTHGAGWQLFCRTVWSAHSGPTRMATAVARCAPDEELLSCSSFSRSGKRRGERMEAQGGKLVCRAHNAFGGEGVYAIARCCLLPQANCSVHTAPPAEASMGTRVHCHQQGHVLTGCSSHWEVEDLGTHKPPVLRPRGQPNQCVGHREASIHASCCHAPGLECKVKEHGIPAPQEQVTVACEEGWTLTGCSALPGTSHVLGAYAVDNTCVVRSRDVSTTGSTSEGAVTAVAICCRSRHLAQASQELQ
# Sequence (Q8NBP7 31-152 partner limits assumed): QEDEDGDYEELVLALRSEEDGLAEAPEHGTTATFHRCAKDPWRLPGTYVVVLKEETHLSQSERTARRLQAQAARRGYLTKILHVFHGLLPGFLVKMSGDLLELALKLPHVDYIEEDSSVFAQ
# test.method.notes: PCSK9 ligand binding TR-FRET assay (interference with binding of human PCSK9 to human LDLR)
# condition.details: TR-FRET; human PCSK9 Alexa Fluor 647 / human LDLR extracellular domain-Europium Kryptate; read-out: PCSK9 FRET Assay IC50
readout.label: IC50 (nM)

compound	uom	measured.value
COC[C@@H]1NC(=O)[C@H](C)N(Cc2ccc(Cl)cc2Oc2ccc(-c3cnc(CN(C)C)n3C)cc2)C(=O)C[C@@H](Cc2ccccc2)C(=O)N(C)C2CCOCC2NC(=O)CC(Cc2ccc(Cl)cc2)N(C)C1=O (some centres unmarked) [Compound 61]	nM	1.4
COC[C@@H]1NC(=O)[C@H](C)N(Cc2ccc(Cl)cc2Oc2ccc(-c3cncc(CN4CCCC4)c3C)cc2)C(=O)C[C@@H](Cc2ccccc2)C(=O)N(C)[C@@H](C)CNC(=O)C[C@H](Cc2ccc(Cl)cc2)N(C)C1=O [Compound 301]	nM	3.9
CCOc1ncc(-c2ccc(Oc3cc(Cl)ccc3CN3C(=O)C[C@@H](Cc4ccccc4)C(=O)N(C)[C@@H](C)CNC(=O)C[C@H](Cc4ccc(Cl)cc4)N(C)C(=O)[C@H](COC)NC(=O)[C@@H]3C)cc2)n1C [Compound 68]	nM	30.5
COC[C@@H]1NC(=O)[C@H](C)N(Cc2ccc(Cl)cc2Oc2cccc(C(=O)NC3CCN(C)CC3)c2)C(=O)C[C@@H](Cc2ccccc2)C(=O)N(C)[C@@H](C)CNC(=O)C[C@H](Cc2ccc(Cl)cc2)N(C)C1=O [Compound 118]	nM	24.6

1 = CCN(CC)Cc1cn(-c2ccc(Oc3cc(Cl)ccc3CN3C(=O)C[C@@H](Cc4ccccc4)C(=O)N(C)[C@@H](C)CNC(=O)C[C@H](Cc4ccc(Cl)cc4)N(C)C(=O)[C@H](COC)NC(=O)[C@@H]3C)cc2)nn1 [Compound 120]
2 = COC[C@@H]1NC(=O)[C@H](C)N(Cc2ccc(Cl)cc2Oc2ccc(-n3cnc(C(=O)NCCO)c3C)cc2)C(=O)C[C@@H](Cc2ccccc2)C(=O)N(C)[C@@H](C)CNC(=O)C[C@H](Cc2ccc(Cl)cc2)N(C)C1=O [Compound 188]
3 = COC[C@@H]1NC(=O)[C@H](C)N(Cc2ccc(Cl)cc2Oc2ccc(-c3cnc(CN(C)C)n3C)cc2)C(=O)C[C@@H](Cn2cccn2)C(=O)N(C)[C@H]2CCCC[C@@H]2NC(=O)C[C@H](Cc2ccc(Cl)cc2)N(C)C1=O [Compound 253]
4 = COC[C@@H]1NC(=O)[C@H](C)N(Cc2ccc(Cl)cc2Oc2ccc(-c3cnc(CN4CCCC4)n3C)c(F)c2F)C(=O)C[C@@H](Cc2ccccc2)C(=O)N(C)[C@@H](C)CNC(=O)C[C@H](Cc2ccc(Cl)cc2)N(C)C1=O [Compound 299]
Sort (4 compounds) by IC50: min first. The reply should contain the labels ordered as requested.
3, 4, 2, 1
